assay: Study 204953 Part 2: repeat dosing for 11 days with RTV QD or 200 mg BID unboosted; format: in vivo, human; settings: human, plasma, oral, 200 mg, Study day 1, 200 mg bid without RTV (capsules), Study 204953; median (range)
QUANTITY_KIND: Tmax (h)
Respond numerically; units are h and should not be typed.

Tmax reading for CC(C)C1=C2[C@H]3CC[C@@H]4[C@@]5(C)CC[C@H](OC(=O)CC(C)(C)C(=O)O)C(C)(C)[C@@H]5CC[C@@]4(C)[C@]3(C)CC[C@@]2([C@@H](O)CN(CCN(C)C)Cc2ccc(Cl)cc2)CC1=O [GSK2838232] : 3.74
